tgt: KCNT1 (KNa1.1, Slack) (Homo sapiens (Human), UniProt Q5JUK3)
Sequence (Q5JUK3 whole entry): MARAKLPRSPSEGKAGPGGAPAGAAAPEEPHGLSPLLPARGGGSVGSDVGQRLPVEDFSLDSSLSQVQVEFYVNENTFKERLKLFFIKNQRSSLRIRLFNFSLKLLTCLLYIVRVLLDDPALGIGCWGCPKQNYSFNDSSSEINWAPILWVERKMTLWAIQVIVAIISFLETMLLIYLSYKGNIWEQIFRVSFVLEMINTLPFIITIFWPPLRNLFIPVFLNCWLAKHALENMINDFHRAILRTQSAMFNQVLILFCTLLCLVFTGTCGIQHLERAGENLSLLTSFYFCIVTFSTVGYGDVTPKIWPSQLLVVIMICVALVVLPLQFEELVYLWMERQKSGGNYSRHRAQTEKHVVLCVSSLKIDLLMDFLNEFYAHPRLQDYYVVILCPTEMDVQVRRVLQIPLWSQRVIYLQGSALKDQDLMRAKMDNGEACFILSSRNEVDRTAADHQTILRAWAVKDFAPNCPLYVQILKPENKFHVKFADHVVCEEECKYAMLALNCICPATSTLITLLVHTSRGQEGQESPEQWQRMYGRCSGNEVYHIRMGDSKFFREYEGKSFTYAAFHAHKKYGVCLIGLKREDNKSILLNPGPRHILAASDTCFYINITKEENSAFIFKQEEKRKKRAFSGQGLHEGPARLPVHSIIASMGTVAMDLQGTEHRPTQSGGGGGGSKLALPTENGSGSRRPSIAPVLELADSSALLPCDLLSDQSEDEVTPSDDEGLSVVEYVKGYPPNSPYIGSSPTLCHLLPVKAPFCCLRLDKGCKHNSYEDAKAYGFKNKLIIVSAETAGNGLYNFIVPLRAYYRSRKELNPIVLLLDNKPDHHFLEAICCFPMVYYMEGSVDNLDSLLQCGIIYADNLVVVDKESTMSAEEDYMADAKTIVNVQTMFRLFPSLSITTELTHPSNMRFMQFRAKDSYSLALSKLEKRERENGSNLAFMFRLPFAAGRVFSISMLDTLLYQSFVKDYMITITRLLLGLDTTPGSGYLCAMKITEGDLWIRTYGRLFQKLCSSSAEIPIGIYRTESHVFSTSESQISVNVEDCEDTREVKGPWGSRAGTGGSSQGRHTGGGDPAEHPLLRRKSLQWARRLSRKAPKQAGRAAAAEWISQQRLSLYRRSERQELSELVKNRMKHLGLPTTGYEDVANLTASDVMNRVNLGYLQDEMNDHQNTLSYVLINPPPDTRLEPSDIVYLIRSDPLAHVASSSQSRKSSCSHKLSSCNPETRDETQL
assayExplanation: KCNT1-WT-Basal - Patch Clamp Assay
assayConditions: tetracycline inducible HEK-TREX cell line; SyncroPatch 384PE automated patch clamp; step to 0 mV; room temperature
pIC50: −log10 of the molar value.
metricName: pIC50

The following compounds have reported results that may help.
compound: C[C@@H](NC(=O)C1CCCCC1)c1cc(-c2ccnc(C(F)(F)F)c2)no1 (single isomer, unassigned) [Example 26]
metricName: pIC50
resultValue: ≤ 4.70
--
compound: CC(C)c1cc(C(=O)N[C@H](C)c2cc(-c3ccnc(C(F)(F)F)c3)no2)n(C)n1 (single isomer, unassigned) [Example 24]
metricName: pIC50
resultValue: 4.70 to 6.00
--
compound: C[C@@H](NC(=O)c1cc(C(F)(F)F)nn1C)c1nc(-c2ccnc(C(F)(F)F)c2)ns1 (single isomer, unassigned) [Example 10]
metricName: pIC50
resultValue: ≥ 6.00
--
compound: C[C@@H](NC(=O)c1cc(C(F)(F)F)nn1C)c1cc(-c2ccnc(C(F)(F)F)c2)no1 (single isomer, unassigned) [Example 3]
metricName: pIC50
resultValue: 4.70 to 6.00
--
compound: C[C@H](NC(=O)c1cccc(Cl)c1)c1cc(-c2ccnc(C3CC3)c2)no1 (single isomer, unassigned) [Example 18]
metricName: pIC50
resultValue: 4.70 to 6.00

**Q:** Any idea what pIC50 was measured for C[C@@H](NC(=O)c1ccnn1C1CCC1)c1cc(-c2ccnc(C(F)(F)F)c2)no1 (single isomer, unassigned) [Example 36] ?
**A:** ≥ 6.00

###

Quick list: IC50 per entry.
tgt: KCNT1 (KNa1.1, Slack) (Homo sapiens (Human), UniProt Q5JUK3)
assayExplanation: KCNT1-WT-Basal - Patch Clamp Assay
assayConditions: tetracycline inducible HEK-TREX cell line; SyncroPatch 384PE automated patch clamp; step to 0 mV; room temperature

The following compounds have reported results that may help.
compound: COCc1cc(-c2nsc([C@H](C)NC(=O)c3cc(C(F)(F)F)nn3C)n2)ccn1 (single isomer, unassigned)
resultValue: 1000 to 20000 nM

compound: C[C@@H](NC(=O)N1CCCCC1)c1cc(-c2ccnc(C(F)(F)F)c2)no1 (single isomer, unassigned)
resultValue: 1000 to 20000 nM

compound: C[C@H](NC(=O)c1ccccc1)c1nc(-c2ccnc(C3CC3)c2)ns1
resultValue: ≤ 1000 nM

Please look at the following compound next.
**Q:** Any idea what IC50 was measured for C[C@H](NC(=O)c1ccccc1)c1cc(-c2ccnc(C(F)(F)F)c2)no1 (single isomer, unassigned) ?
**A:** 1000 to 20000 nM

###

tgt: KCNT1 (KNa1.1, Slack) (Homo sapiens (Human), UniProt Q5JUK3)
assayExplanation: KCNT1-WT-Basal - Patch Clamp Assay
assayConditions: tetracycline inducible HEK-TREX cell line; SyncroPatch 384PE automated patch clamp; step to 0 mV; room temperature
metricName: IC50

The following compounds have reported results that may help.
compound: Cc1cc(-c2nsc([C@@H](C)NC(=O)c3cc(C(F)(F)F)nn3C)n2)ccn1 [Example 41]
IC50: 1000 to 20000 nM
--
compound: Cc1cc(-c2nsc([C@H](C)NC(=O)c3cc(C(F)(F)F)nn3C)n2)ccn1 [Example 40]
IC50: 1000 to 20000 nM
--
compound: C[C@@H](NC(=O)c1cc(C(F)(F)F)nn1C)c1nc(N2CCCCC2)ns1 [Example 47]
IC50: 1000 to 20000 nM
--
compound: C[C@@H](NC(=O)c1cccc(Cl)c1)c1cc(-c2ccnc(C3CC3)c2)no1 (single isomer, unassigned) [Example 19]
IC50: ≤ 1000 nM
--
compound: C[C@@H](NC(=O)N1CCOc2ccccc21)c1cc(-c2ccnc(C(F)(F)F)c2)no1 (single isomer, unassigned) [Example 39]
IC50: ≤ 1000 nM

**Q:** Notebook: pull reported IC50 for KCNT1 (KNa1.1, Slack) (Homo sapiens (Human), UniProt Q5JUK3), entry C[C@H](NC(=O)N1CCCCC1)c1cc(-c2ccnc(C(F)(F)F)c2)no1 (single isomer, unassigned) [Example 8]
**A:** ≥ 20000 nM

**Q:** Notebook: pull reported IC50 for KCNT1 (KNa1.1, Slack) (Homo sapiens (Human), UniProt Q5JUK3), entry C[C@H](NC(=O)c1cc(C(F)F)nn1C)c1cc(-c2ccnc(C(F)(F)F)c2)no1 (single isomer, unassigned) [Example 31]
**A:** ≤ 1000 nM

**Q:** Notebook: pull reported IC50 for KCNT1 (KNa1.1, Slack) (Homo sapiens (Human), UniProt Q5JUK3), entry C[C@@H](NC(=O)N1CCCc2ccccc21)c1cc(-c2ccnc(C(F)(F)F)c2)no1 (single isomer, unassigned) [Example 35]
**A:** ≤ 1000 nM

**Q:** Notebook: pull reported IC50 for KCNT1 (KNa1.1, Slack) (Homo sapiens (Human), UniProt Q5JUK3), entry C[C@H](NC(=O)N1CCOc2ccccc21)c1cc(-c2ccnc(C(F)(F)F)c2)no1 (single isomer, unassigned) [Example 38]
**A:** 1000 to 20000 nM

**Q:** Notebook: pull reported IC50 for KCNT1 (KNa1.1, Slack) (Homo sapiens (Human), UniProt Q5JUK3), entry C[C@H](NC(=O)N1CCCc2ccccc21)c1cc(-c2ccnc(C(F)(F)F)c2)no1 (single isomer, unassigned) [Example 34]
**A:** 1000 to 20000 nM

**Q:** Notebook: pull reported IC50 for KCNT1 (KNa1.1, Slack) (Homo sapiens (Human), UniProt Q5JUK3), entry C[C@H](NC(=O)Cc1ccccc1)c1cc(-c2ccnc(C(F)(F)F)c2)no1 (single isomer, unassigned) [Example 29]
**A:** 1000 to 20000 nM

###

tgt: KCNT1 (KNa1.1, Slack) (Homo sapiens (Human))
assayExplanation: KCNT1-WT-Basal - Patch Clamp Assay
assayConditions: tetracycline inducible HEK-TREX cell line; SyncroPatch 384PE automated patch clamp; step to 0 mV; room temperature
Protocol: Inhibition of KCNT1 (KNa1.1, Slack) was evaluated using a tetracycline inducible cell line (HEK-TREX). Currents were recorded using the SyncroPatch 384PE automated, patch clamp system. […] Current were recorded in perforated patch mode (10 µM escin) from a population of cells. […] Currents were recorded at room temperature. […] Mean current was measured during the step to 0 mV. […] The average mean current from 3 sweeps was calculated and the % inhibition of each compound was calculated. […]
Quick list: IC50 per entry.

The following compounds have reported results that may help.
compound: C[C@@H](NC(=O)c1ccccc1)c1cc(-c2ccnc(C3CC3)c2)no1 (single isomer, unassigned)
IC50: 1000 to 20000 nM
//
compound: C[C@@H](NC(=O)c1cc(C(F)F)nn1C)c1cc(-c2ccnc(C(F)(F)F)c2)no1 (single isomer, unassigned)
IC50: 1000 to 20000 nM
//
compound: C[C@H](NC(=O)c1cc(C(F)(F)F)nn1C)c1cc(-c2ccnc(C(F)(F)F)c2)no1 (single isomer, unassigned)
IC50: ≤ 1000 nM

Please look at the following compound next.
**Q:** Any idea what IC50 was measured for COCc1cc(-c2nsc([C@@H](C)NC(=O)c3cc(C(F)(F)F)nn3C)n2)ccn1 (single isomer, unassigned) ?
**A:** 1000 to 20000 nM

###

tgt: KCNT1 (KNa1.1, Slack) (Homo sapiens (Human), UniProt Q5JUK3)
assayExplanation: KCNT1-WT-Basal - Patch Clamp Assay
assayConditions: tetracycline inducible HEK-TREX cell line; SyncroPatch 384PE automated patch clamp; step to 0 mV; room temperature
metricName: IC50

compound: C[C@@H](NC(=O)c1cccc(C(F)(F)F)c1)c1cc(-c2ccnc(C(F)(F)F)c2)no1 (single isomer, unassigned)
tgt: KCNT1 (KNa1.1, Slack) (Homo sapiens (Human), UniProt Q5JUK3)
resultValue: 1000 to 20000 nM
--
compound: C[C@@H](NC(=O)c1cc(C(F)(F)F)nn1C)c1nc(-c2ccnc(C3CC3)c2)ns1 (single isomer, unassigned)
tgt: KCNT1 (KNa1.1, Slack) (Homo sapiens (Human), UniProt Q5JUK3)
resultValue: ≤ 1000 nM
--
compound: C[C@H](NC(=O)c1cccc(Cl)c1)c1nc(-c2ccnc(C3CC3)c2)ns1 (single isomer, unassigned)
tgt: KCNT1 (KNa1.1, Slack) (Homo sapiens (Human), UniProt Q5JUK3)
resultValue: ≤ 1000 nM

**Q:** Any idea what IC50 was measured for C[C@@H](NC(=O)c1cccc(Cl)c1)c1nc(-c2ccnc(C3CC3)c2)ns1 (single isomer, unassigned) ?
**A:** ≤ 1000 nM

**Q:** Any idea what IC50 was measured for C[C@H](NC(=O)c1cccc(C(F)(F)F)c1)c1cc(-c2ccnc(C(F)(F)F)c2)no1 (single isomer, unassigned) ?
**A:** ≤ 1000 nM
